# Test system: organophosphorous agent resistant two-spotted spider mites
# METHOD: Effect on Two-spotted Spider Mite (spray on kidney bean leaves)
# Format: in vivo
# CONDITION_DESCRIPTION: 125 ppm, water dispersible powder of Formulation Example 1 sprayed, 17 female adults, 25° C., 65% humidity, 3 days
MEASURED_PROPERTY: rate of killed adults (%)
Field: numeric (%). Do not append units.

Below, each entry is followed by its recorded rate of killed adults result.
MOLECULE	UNITS_TEXT	rate of killed adults
COCOc1cc(C(F)(F)F)ccc1OC1C2CCCC1CN(c1ccc(C(F)(F)F)cn1)C2 (centres unmarked) [7-100]	%	100
CC(C)OCc1cc(C(F)(F)F)ccc1OC1C2CCC1CN(c1ccc(C(F)(F)F)cn1)C2 (centres unmarked) [5-225]	%	100
COCCCc1cc(C(F)(F)F)ccc1OC1CC2CCC(C1)N2c1ccc(C(F)(F)F)cn1 (centres unmarked) [2-190]	%	100
FC(F)(F)c1ccc(N2CCC(Oc3ccc(C(F)(F)F)cc3C(F)(F)F)CC2)nc1 [1-80]	%	100
CC(C)C(C)OC(=O)c1cc(C(F)(F)F)ccc1OC1CC2CCC(C1)N2c1ccc(C(F)(F)F)cn1 (centres unmarked) [2-232]	%	100

rate of killed adults in this record for CCCOc1cc(C#N)ccc1O[C@@H]1[C@@H]2CC[C@H]1CN(c1ccc(C(F)(F)F)cn1)C2 [5-102] : 100

rate of killed adults in this record for CCCOc1cc(C(F)(F)F)ccc1OC1CC2CCC(C1)N2c1ccc(C(F)(F)F)c[n+]1[O-] (centres unmarked) [2-83] : 100

rate of killed adults in this record for CC1COC(c2cc(C(F)(F)F)ccc2O[C@@H]2[C@@H]3CC[C@H]2CN(c2ccc(C(F)(F)F)cn2)C3)N1 (some centres unmarked) [5-259] : 100
